- system_name: MAGI2_6, Q86UL8
- Sequence (Q86UL8 1141-1229): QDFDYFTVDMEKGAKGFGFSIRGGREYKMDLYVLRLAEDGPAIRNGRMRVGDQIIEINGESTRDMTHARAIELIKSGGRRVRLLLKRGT
- test_details: holdup assay
- Parameters: key: below the threshold = too weak to quantify, mostly under pKd 3.1 to 4
- run_parameters: plain residues with an end cap or a label only (N-terminal biotin on a linker: ado-ado)
quantity_name: pKd

Consider the worked cases shown below.
[
  {
    "binder": "PLPPEEESWV [GAS2L2, Q8NHY3]",
    "pKd": 5.88
  },
  {
    "binder": "FVFESRKEIL [TBPL1, P62380]",
    "pKd": "below the threshold"
  },
  {
    "binder": "MLPANYVEAI [NEB, P20929]",
    "pKd": "below the threshold"
  },
  {
    "binder": "SQPLLVHDDV [KIT, P10721]",
    "pKd": "below the threshold"
  },
  {
    "binder": "SKQFDKNAYV [CLDN10, P78369]",
    "pKd": "below the threshold"
  },
  {
    "binder": "THHRKIHTRV [ZNF599, Q96NL3]",
    "pKd": "below the threshold"
  },
  {
    "binder": "VKQYADVEGF [HNRNPK, P61978;P61978-2]",
    "pKd": "below the threshold"
  },
  {
    "binder": "KIEDVEITLV [FCHSD2, O94868]",
    "pKd": 4.24
  },
  {
    "binder": "EAVTVESTSL [SLC22A11, Q9NSA0]",
    "pKd": 4.2
  },
  {
    "binder": "NTALVESEDL [PALLS, Q8WX93;Q8WX93-1]",
    "pKd": 4.01
  }
]

Inquiry: Recorded pKd of QQGLLPHSSC [TYRO3, Q06418] , please.
Reply text: below the threshold

Inquiry: Here is the next binder: KPDKQEEFYA [SDC3, O75056]
Reply text: below the threshold

Inquiry: Also, YAEKRMLTEV [KCNA6, P17658] please.
Reply text: below the threshold
